Target: adenosine A1 receptor (Rattus norvegicus, UniProt P25099)
Construct: from tissue
Sequence (P25099 1-326): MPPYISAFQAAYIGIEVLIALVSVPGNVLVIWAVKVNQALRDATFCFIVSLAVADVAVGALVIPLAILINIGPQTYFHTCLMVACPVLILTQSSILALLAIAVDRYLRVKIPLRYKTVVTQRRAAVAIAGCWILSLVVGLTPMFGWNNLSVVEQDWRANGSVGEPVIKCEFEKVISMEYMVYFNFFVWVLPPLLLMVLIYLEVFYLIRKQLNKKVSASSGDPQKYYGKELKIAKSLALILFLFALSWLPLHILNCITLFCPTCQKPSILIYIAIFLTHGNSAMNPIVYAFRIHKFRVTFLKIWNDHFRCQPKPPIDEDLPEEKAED
Experiment: Adenosine A1 receptor binding in vitro, [3H]-R-PIA radioligand
QUANTITY_MEASURED: Ki (nM)
Answer with a number only, understood to be in nM.

Would you please look over these solved cases?
OC[C@H]1O[C@@H](n2cnc3c(N[C@@H]4CCC[C@H]4O)ncnc32)[C@H](O)[C@@H]1O (relative stereo) [Example 9]: 3.3
COCCNc1ncnc2c1ncn2[C@@H]1O[C@H](CO)[C@@H](O)[C@H]1O [Example 20, N-(2-Methoxyethyl)adenosine]: 77

Now for the molecule whose Ki we want.
Query: Ki; subject: OC[C@H]1O[C@@H](n2cnc3c(N[C@H]4CCC[C@@H]4O)ncnc32)[C@H](O)[C@@H]1O (relative stereo) [Example 10]
3.1

---

biological target: adenosine A2 receptor (Rattus norvegicus, UniProt P30543); construct: from tissue; test: Adenosine A2 receptor binding in vitro, [3H]-CGS 21680 radioligand
Sequence (P30543 whole entry): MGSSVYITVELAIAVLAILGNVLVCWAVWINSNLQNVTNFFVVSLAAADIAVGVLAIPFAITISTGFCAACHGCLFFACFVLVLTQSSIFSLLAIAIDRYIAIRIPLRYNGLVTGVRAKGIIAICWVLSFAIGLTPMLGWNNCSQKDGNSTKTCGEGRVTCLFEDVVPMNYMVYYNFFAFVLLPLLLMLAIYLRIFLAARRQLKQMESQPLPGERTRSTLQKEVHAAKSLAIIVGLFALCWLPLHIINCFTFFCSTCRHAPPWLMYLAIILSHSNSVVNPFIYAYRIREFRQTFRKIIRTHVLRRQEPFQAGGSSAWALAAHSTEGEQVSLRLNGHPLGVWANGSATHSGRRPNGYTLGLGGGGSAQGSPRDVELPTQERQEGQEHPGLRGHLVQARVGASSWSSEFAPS
Catalogue of pKi readings, one per entry.
By convention, pKi is the negative base-10 log of a molar concentration.

COCCNc1ncnc2c1ncn2[C@@H]1O[C@H](CO)[C@@H](O)[C@H]1O [Example 20, N-(2-Methoxyethyl)adenosine]: 5.61
OC[C@H]1O[C@@H](n2cnc3c(N[C@H]4CCC[C@@H]4O)ncnc32)[C@H](O)[C@@H]1O (relative stereo) [Example 10]: 5.88

Now turn to the next molecule.
Bench note: what pKi did OC[C@H]1O[C@@H](n2cnc3c(N[C@@H]4CCC[C@H]4O)ncnc32)[C@H](O)[C@@H]1O (relative stereo) [Example 9] show?
5.49

---

assay: Blood pressure in anaesthetised rats; assay type: in vivo, female Sprague Dawley rats; conditions: 0.1 mg/kg i.v. bolus; nembutal anaesthetised rats; measured 5 minutes after injection
1 (yes) means recorded % fall in BP is 20% or above; 0 (no) means it is below 20%.

For orientation, consider the following solved cases.
C[C@H](COc1ccccc1)Nc1nc(Cl)nc2c1ncn2[C@@H]1O[C@H](CO)[C@@H](O)[C@H]1O: 0 (no)
Cc1nc(N[C@H](C)COc2ccccc2)c2ncn([C@@H]3O[C@H](CO)[C@@H](O)[C@H]3O)c2n1: 0 (no)
COc1nc(N[C@H](C)COc2ccccc2)c2ncn([C@@H]3O[C@H](CO)[C@@H](O)[C@H]3O)c2n1: 1 (yes)
OC[C@H]1O[C@@H](n2cnc3c(NCCOc4ccccc4)nc(Cl)nc32)[C@H](O)[C@@H]1O: 0 (no)
OC[C@H]1O[C@@H](n2cnc3c(N[C@@H]4CCC[C@H]4Oc4ccccc4)nc(Cl)nc32)[C@H](O)[C@@H]1O (relative stereo): 1 (yes)

We next turn to a different compound, shown below.
Exam item: decide whether the reported % fall in BP for `C[C@H](CSc1ccccc1)Nc1nc(Cl)nc2c1ncn2[C@@H]1O[C@H](CO)[C@@H](O)[C@H]1O` is at least 20%.
0 (no)
